Test: Anticoagulant activity in plasma assessed as elongation in mean prothrombin time after 5 min by Quick's method
Format: functional, cell-free
Metric: IC50 (µg/mL)
Express it in µg/mL; write the number only.

{"Structure as smiles": "C/C(CC(=O)Nc1nnc(-c2ccc(O)cc2)s1)=N\\c1ccccn1", "Unit symbol": "µg/mL", "IC50": 3100}
{"Structure as smiles": "C/C(CC(=O)Nc1nnc(-c2ccc(N)cc2)s1)=N\\c1ccccn1", "Unit symbol": "µg/mL", "IC50": 3500}
{"Structure as smiles": "CC(=O)Oc1ccccc1-c1nnc(NC(=O)C/C(C)=N/c2ccc([N+](=O)[O-])cn2)s1", "Unit symbol": "µg/mL", "IC50": 2100}
{"Structure as smiles": "C/C(CC(=O)Nc1nnc(-c2ccc([N+](=O)[O-])cc2)s1)=N\\c1ccccn1", "Unit symbol": "µg/mL", "IC50": 1200}

Could you now consider this next molecule?
Fill blank: measured IC50 of the molecule C/C(CC(=O)Nc1nnc(-c2ccc(N)cc2)s1)=N\c1ccc([N+](=O)[O-])cn1 is ____. 2700
